System: Human rhinovirus sp.
Experiment: Effective concentration against HRV-14
Format: functional, organism-based
readout label: EC50 (µg/mL)
Numbers only, in µg/mL.

{"structure smiles string": "CCOc1nc2cc(OCCC3CCN(c4ccc(C)nn4)CC3)ccc2s1", "EC50 / µg/mL": 0.006}
{"structure smiles string": "CCc1nc2cc(OCCC3CCN(c4ccc(C)nn4)CC3)ccc2o1", "EC50 / µg/mL": 0.13}
{"structure smiles string": "CCSc1nc2ccc(OCCC3CCN(c4ccc(C)nn4)CC3)cc2o1", "EC50 / µg/mL": 0.05}
{"structure smiles string": "CCSc1nc2cc(OCCC3CCN(c4ccc(C)nn4)CC3)ccc2o1", "EC50 / µg/mL": 0.006}

# context switch: different compound, same EC50
`CSc1nc2cc(OCCC3CCN(c4ccc(C)nn4)CC3)ccc2o1` on Human rhinovirus sp. gives EC50 = 0.047
